# Tested on: HS 578T breast
# Protocol: NCI tumour cell line growth inhibition, 48 h
Where a SMILES comes first, the peptide text is derived from it. Bridges are numbered along the chain shown (N, C = ends).
Measured TGI, listed per entry.
Please state the figure in µM; there is no need to write the unit.

Here are 4 compounds together with their reported answers.
compound="CCC(C)C1NC(=O)C(CC(C)C)NC(=O)C(C(C)C)NC(=O)C2CSSCC(NC1=O)C(=O)N2 (centres undefined) (cyclo(CCVLI); disulfide 1-2; configuration not given here)" value_units=µM assay_value=0.271
compound="C=C1C(=O)O[C@H]2C1C[C@H](O)/C(C)=C/CC[C@@]1(C)O[C@H]21 (some centres undefined)" value_units=µM assay_value=75.2
compound="CCOC1Oc2ccccc2C(=O)/C1=C\\Nc1ccc(C(=O)O)c(O)c1 (centres undefined)" value_units=µM assay_value=90
compound=CN1CCN(C(=O)[C@@]2(C)CC[C@]3(C)CC[C@]4(C)C(=CC[C@@H]5[C@@]6(C)CC[C@H](OC(=O)c7cccnc7)C(C)(C)[C@@H]6CC[C@]54C)[C@@H]3C2)CC1 value_units=µM assay_value=3.14

The recorded TGI for CCCCCCCCCCCCSC1=CC(=O)C=CC1=O is 21.8

Documented TGI of O=C(Nc1ccccc1)c1cc2cc(CCl)ccc2oc1=O : 63.9

Quick note, TGI for COc1ccc2c(c1)C(=O)/C(=C/c1cccc(OCC(=O)c3ccc([N+](=O)[O-])cc3)c1)CO2 landed at 12.2

Please fill in: TGI reported for CC(C)(CN1CCCCC1)C(=O)CC(SCCS(=O)(=O)O)c1ccccc1 (centres undefined) = 90.1

What the record says about Cc1ccc2c(c1)C(=O)/C(=C/c1cccc(OCC(=O)c3ccc(Cl)cc3)c1)CS2 : TGI is 4.42

* * *

# Tested on: SK-OV-3 ovarian
# Protocol: NCI tumour cell line growth inhibition, 48 h
Recorded endpoint: GI50

compound=CCc1c2c(nc3ccc(OC(=O)OCc4ccc(B5OC(C)(C)C(C)(C)O5)cc4)cc13)-c1cc3c(c(=O)n1C2)COC(=O)[C@]3(O)CC assay_value="15.1 nM"
compound="CCN(CC)CCOc1ccc(NC(=O)C(C(C)C)N2C(=O)/C(=C/c3ccc(Br)cc3)SC2=S)cc1 (stereo not drawn)" assay_value="15900 nM"
compound=CN(CCCCCCCCNc1ccnc2ccccc12)Cc1ccc(-c2ccc(-c3ccc(C#N)cc3)s2)cc1 assay_value="1650 nM"

GI50 in this record for COC1/C=C/OC2(C)Oc3c(C)c(O)c4c(O)c(c(/C=N/N(c5ccccc5)c5ccccc5)c(O)c4c3C2=O)NC(=O)C(C)=C/C=C/C(C)C(O)C(C)C(O)C(C)C(OC(C)=O)C1C (stereo not drawn) : 6380 nM

compound CCOC1Oc2ccccc2C(=O)/C1=C\Nc1ccc(C(=O)O)c(O)c1 (stereo not drawn) , GI50 observed: 21700 nM

* * *

# System: MALME-3M melanoma
# Protocol: NCI tumour cell line growth inhibition, 48 h
Let's look at some compounds and their measured log10 of TGI.
The figures below represent log10 of TGI, where TGI is stated in µM.

compound=Cc1cc2oc(=O)cc(OC/C=C3/CCC(=O)O3)c2cc1C assay_value=0.88

Short answer for CC(=O)c1sc2c(c1OC(=O)c1ccccc1)c(=O)n(-c1ccccc1)c(=S)n2-c1ccccc1 : log10 of TGI was 0.77

Just so you know, measured log10 of TGI for CCCCCCCCCCCCCCCCCC(=O)NCC(COP(=O)([O-])OCC[N+](C)(C)C)OCC (stereo unspecified) came out at 1.56

# compound C=C1C(=O)O[C@H]2[C@H]1CC/C(CNC(=O)C(C)c1ccc(CC(C)C)cc1)=C\CC[C@@]1(C)O[C@@H]21 (stereo partly specified) ; its log10 of TGI = 0.53

Lab note: CN(C)c1ccc2cc3c(cc2c1)Oc1ccccc1N3.[Cl][Zn][Cl] gave log10 of TGI of 0.98

Just so you know, measured log10 of TGI for C[n+]1ccc2/c(=C\C#N)c3ccccc3n21 came out at 1.65

Data provenance is PubChem BioAssay (NCI).
